procedure_summary: Phase 1 part A: PK after single and multiple once-daily oral doses
Format: in vivo, human
assay_context: human, plasma, po, 25 mg, Day 1, 25 mg, White; median (range); read-out: Tmax
measured_property: Tmax
Answer as a quantity: numeral, then unit.

Request: Bench note: what Tmax did Cn1c(=O)oc2ccc(-c3ccc(C[C@@H](C#N)NC(=O)[C@@H]4CNCCCO4)cc3)cc21 show?
Response: 1.35 h

====

procedure_summary: Phase 1 part B: PK of single 40 mg oral dose, fasted vs fed (food effect)
Assay type: in vivo, human
assay_context: human, plasma, po, 40 mg, 40 mg single oral dose, White, fed; mean (CV%); read-out: t1/2 (converted)
measured_property: half-life (h)
Write the value in h as a bare number.

Request: Tell me the measured half-life of Cn1c(=O)oc2ccc(-c3ccc(C[C@@H](C#N)NC(=O)[C@@H]4CNCCCO4)cc3)cc21 , please.
Response: 27.5
